test system: Human immunodeficiency virus type 1 reverse transcriptase (Human immunodeficiency virus 1), Q72547 [K103N,Y181C]; experiment: Inhibition of HIV1 Reverse transcriptase p51/p66 K103N/Y181C mutant at 10 uM after 30 mins using alpha-[32P]dATP by liquid scintillation counting
# reported inhibition; entries follow

As a guide, the following entries are already answered.
molecule	inhibition
O=C(OC1C=CC(n2ccc(=O)n(Cc3ccccc3)c2=O)C1)c1ccccc1 (centres undefined)	15%
Cc1cc(C)cc(C(=O)OC2C=CC(n3ccc(=O)n(Cc4ccccc4)c3=O)C2)c1 (centres undefined)	23%
Cc1ccnc2c1NC(=O)c1cccnc1N2C1CC1	< 10%

--- query ---
Exercise: Please give the measured inhibition for this molecule: O=C(OC1C=CC(n2ccc(=O)n(Cc3ccccc3)c2=O)C1)c1cc(Cl)cc(Cl)c1 (centres undefined)
Key: 25%

###

target: Human immunodeficiency virus type 1 reverse transcriptase (Human immunodeficiency virus 1, UniProt Q72547, K103N/Y181C); assay: Inhibition of HIV1 Reverse transcriptase p51/p66 K103N/Y181C mutant after 30 mins using alpha-[32P]dATP by liquid scintillation counting
readoutKind: IC50

molecule	obsValue
O=C(OC1C=CC(n2ccc(=O)n(Cc3ccccc3)c2=O)C1)c1cc(Cl)cc(Cl)c1 (configuration not stated)	> 10 µM

Let's switch to this molecule now.
Exercise: Need IC50 of Cc1cc(C)cc(C(=O)OC2C=CC(n3ccc(=O)n(Cc4ccccc4)c3=O)C2)c1 (configuration not stated) , thanks.
Key: > 20 µM

###

assay: Inhibition of HIV1 Reverse transcriptase p51/p66 G190A mutant after 30 mins using alpha-[32P]dATP by liquid scintillation counting; set-up: species or system Human immunodeficiency virus 1
readoutKind: IC50

Exercise: Reported IC50, compound O=C(OC1C=CC(n2ccc(=O)n(Cc3ccccc3)c2=O)C1)c1ccccc1 (centres undefined) : ____
Key: > 50 µM

Exercise: Which IC50 is listed for Cc1cc(C)cc(C(=O)OC2C=CC(n3ccc(=O)n(Cc4ccccc4)c3=O)C2)c1 (centres undefined) ?
Key: > 100 µM

Exercise: Report IC50 for Cc1ccnc2c1NC(=O)c1cccnc1N2C1CC1 [NEVIRAPINE] please.
Key: > 2000 µM

Exercise: Recorded IC50 of O=C(OC1C=CC(n2ccc(=O)n(Cc3ccccc3)c2=O)C1)c1cc(Cl)cc(Cl)c1 (centres undefined) , please.
Key: > 100 µM

###

The reader will find reported inhibition values listed item by item below.
tested on: Human immunodeficiency virus type 1 reverse transcriptase (Human immunodeficiency virus 1), Q72547 [Y181C]; test: Inhibition of HIV1 Reverse transcriptase p51/p66 Y181C mutant at 10 uM after 30 mins using alpha-[32P]dATP by liquid scintillation counting
Return type: number; implicit unit %.

compound	u	obsValue
O=C(OC1C=CC(n2ccc(=O)n(Cc3ccccc3)c2=O)C1)c1ccccc1 (centres undefined)	%	11
O=C(OC1C=CC(n2ccc(=O)n(Cc3ccccc3)c2=O)C1)c1cc(Cl)cc(Cl)c1 (centres undefined)	%	17

Pending compound:
Exercise: I would be grateful if you could share the reported inhibition for Cc1cc(C)cc(C(=O)OC2C=CC(n3ccc(=O)n(Cc4ccccc4)c3=O)C2)c1 (centres undefined) .
Key: 24

###

compounds and their reported inhibition
tested on: Human immunodeficiency virus type 1 reverse transcriptase (Human immunodeficiency virus 1), Q72547 [L100I]; assay: Inhibition of HIV1 Reverse transcriptase p51/p66 L100I mutant at 10 uM after 30 mins using alpha-[32P]dATP by liquid scintillation counting
Give just the numeric value; % need not be written.

Below, each entry is followed by its recorded inhibition result.
compound	inhibition / %
O=C(OC1C=CC(n2ccc(=O)n(Cc3ccccc3)c2=O)C1)c1cc(Cl)cc(Cl)c1 (centres undefined)	89
Cc1cc(C)cc(C(=O)OC2C=CC(n3ccc(=O)n(Cc4ccccc4)c3=O)C2)c1 (centres undefined)	77
O=C(OC1C=CC(n2ccc(=O)n(Cc3ccccc3)c2=O)C1)c1ccccc1 (centres undefined)	83

Let's switch to this compound now.
Exercise: Name the reported inhibition value associated with the compound Cc1ccnc2c1NC(=O)c1cccnc1N2C1CC1
Key: 48
